test system: SW-620 colon; assay: NCI tumour cell line growth inhibition, 48 h; in the data active = GI50 below about 0.43 µM; inactive = the rest
Labels: true = active, false = inactive

{"Compound": "CC(C)(C#N)c1cc(C(=O)Nc2cc(Nc3ncccc3-c3ncnc4nc[nH]c34)ccc2F)cc(C(F)(F)F)c1", "Assigned label": "false"}
{"Compound": "CS(=O)(=O)Nc1ccc(N=Cc2c(O)[nH]c3ccccc23)cc1", "Assigned label": "false"}
{"Compound": "CCCOC(=O)CCn1c(SC)nc2[nH]cc(-c3ccccc3)c2c1=O", "Assigned label": "false"}
{"Compound": "CCCc1cc(=O)n2c(C(=O)Nc3ccccc3OC)c(C(=O)Nc3ccc(F)cc3)sc2n1", "Assigned label": "false"}
{"Compound": "N.N.NCCCCCCN.O=C([O-])CC(=O)[O-].O=C([O-])CC(=O)[O-].[Pt+4].[Pt+4]", "Assigned label": "false"}
{"Compound": "COC(=O)C1=C(OC(=O)c2ccc(Cl)cc2)C(C(=O)OC)[C@@]2(O)[C@@H](C(=O)OC)C(c3ccccc3Cl)C[C@@H]1[C@@H]2C(=O)OC (stereo partly drawn)", "Assigned label": "false"}
{"Compound": "COc1cc(C2C3=C(COC3=O)Nc3cc4c(cc32)CCC4)cc2c1OCO2 (stereo not drawn)", "Assigned label": "true"}
{"Compound": "O=C(CN1CCN(c2ccccc2)CC1)N1CCN(c2nnc(-c3ccc(Cl)cc3)c(-c3ccc(Cl)cc3)n2)CC1", "Assigned label": "false"}

* * *

tested on: SF-295 CNS; assay: NCI tumour cell line growth inhibition, 48 h

{"Molecule": "NC(CCC(=O)O)(CCC(=O)O)CCC(=O)O", "TGI": "> 100 µM"}
{"Molecule": "COc1ccc2c(c1)C(C)Cc1c(Cl)nc(C)nc1N2C (stereo not drawn)", "TGI": "7.92 µM"}
{"Molecule": "COC(=O)CC(=O)Nc1sccc1S(=O)(=O)c1ccccc1", "TGI": "> 100 µM"}
{"Molecule": "COc1cc(C)c(O)c(C(=O)O)c1", "TGI": "> 100 µM"}
{"Molecule": "COc1cc(C(=O)/C=C/c2cccnc2Nc2ccccc2)cc(OC)c1OC", "TGI": "3.78 µM"}
{"Molecule": "CCN(CC)c1ccc(C(=N)c2ccc(N(C)C)cc2)cc1", "TGI": "2.88 µM"}
{"Molecule": "COc1ccc(-c2cc(=O)c3cc4c(cc3[nH]2)OCO4)cc1", "TGI": "> 100 µM"}
{"Molecule": "CCCOC(=O)CCn1c(SC)nc2[nH]cc(-c3ccccc3)c2c1=O", "TGI": "52.4 µM"}
{"Molecule": "O=C(Cc1ccccc1)NCCCN(CCCCN(CCCNC(=O)Cc1ccccc1)C(=O)OCc1ccccc1)C(=O)OCc1ccccc1", "TGI": "> 100 µM"}
{"Molecule": "CC(C)(C)[Si](C)(C)OCCOCn1cc(F)c(=O)[nH]c1=O", "TGI": "> 100 µM"}
{"Molecule": "COc1ccc(-c2nn(-c3cccc(Cl)c3)cc2-c2cc(-c3ccccc3)nc(N)n2)cc1", "TGI": "11.7 µM"}
{"Molecule": "CCN(CC)CC(C(=O)Nc1c(C)cccc1C)/C(C)=N\\NC(=O)c1ccncc1 (stereo not drawn)", "TGI": "> 100 µM"}
{"Molecule": "O=C1/C(=C/c2ccccc2)CCC/C1=C\\c1ccc(O)c(CN2CCCCC2)c1", "TGI": "13 µM"}
{"Molecule": "COc1cc(C2CC(c3ccc(N(C)C)cc3)=NN2C(C)=O)cc(OC)c1OC (stereo not drawn)", "TGI": "> 100 µM"}
{"Molecule": "Nc1ccc(-c2ccc(N)cc2I)c(I)c1", "TGI": "33.9 µM"}
{"Molecule": "COc1cc(/C=C2\\C(=O)N(Cc3ccccc3)C(c3ccccc3)S2(=O)=O)cc(OC)c1OC (stereo not drawn)", "TGI": "> 100 µM"}
{"Molecule": "CN1CCN(c2cc(-c3cc4ccccc4o3)oc(=O)c2C#N)CC1", "TGI": "> 100 µM"}
{"Molecule": "CC(=O)O[C@H]1CCn2c3c(c(C)c21)C(=O)C(N1CC1)=C(C)C3=O", "TGI": "> 10 µM"}
{"Molecule": "O=C1CCCCC/C1=C\\c1ccc(Cl)cc1", "TGI": "56.6 µM"}
{"Molecule": "Cc1ccc2c(c1)-c1c(C#N)c(N)nc(-c3ccccc3)c1CCS2(=O)=O", "TGI": "> 100 µM"}
{"Molecule": "O=C(/C=C/c1ccc(Cl)cc1)c1cccs1", "TGI": "38.5 µM"}
{"Molecule": "Cn1cnc(N2CCCC2)c(C#N)c1=O", "TGI": "> 100 µM"}
{"Molecule": "C=C1CCc2occ(C)c2C2C1C1=C(CC(C)C1=O)C1OC12C (stereo not drawn)", "TGI": "> 100 µM"}

* * *

tested on: NCI-H226 lung; test: NCI tumour cell line growth inhibition, 48 h
Overview of recorded TGI for various compounds
Measured metric: TGI

{"Compound": "Cc1ccc(S(=O)(=O)Nn2c(S)c(C#N)c(-c3ccc([N+](=O)[O-])cc3)c(C#N)c2=O)cc1", "Data value": "> 100 µM"}
{"Compound": "Cc1n[nH]c(=O)n1/N=C\\CC/C=N\\n1c(C)n[nH]c1=O", "Data value": "> 100 µM"}
{"Compound": "CCCCCCCOc1c(OC)cc(C2CC(=O)Nc3c2c(C)nn3-c2nc3ccccc3[nH]2)cc1OC (stereo unspecified)", "Data value": "4.56 µM"}
{"Compound": "c1ccc(P(CCP(CCP(c2ccccc2)c2ccccc2)c2ccccc2)CCP(c2ccccc2)c2ccccc2)cc1 (stereo unspecified)", "Data value": "> 10 µM"}
{"Compound": "CCOc1ccc(NCC2CC/C(=C\\c3ccc(O)cc3)C2=O)cc1 (stereo unspecified)", "Data value": "> 61.2 µM"}
{"Compound": "CCCc1cc(=O)n2c(C(=O)Nc3ccccc3OC)c(C(=O)Nc3ccc(F)cc3)sc2n1", "Data value": "6.96 µM"}
{"Compound": "CN(C(=O)c1ccncc1)c1ccccc1", "Data value": "> 100 µM"}
{"Compound": "CSc1ccccc1C#Cc1ccccc1C#CCCCCO", "Data value": "43.6 µM"}
{"Compound": "COC(C)(C)CCc1[nH]c2ccccc2c1CC(=O)NCCc1cncn1C", "Data value": "> 100 µM"}
{"Compound": "O=c1cc(N=Nc2ccc(O)cc2)[nH]c(=O)[nH]1", "Data value": "> 100 µM"}
{"Compound": "CC(C)C/C=C/C1=NN(c2cccc(S(=O)(=O)O)c2)C2(C1)SCC(=O)N2c1nc2ccccc2s1 (stereo unspecified)", "Data value": "> 100 µM"}
{"Compound": "O=C1NC2C=CN(Cc3ccccc3)C=C2C(=O)N2CCCC12 (stereo unspecified)", "Data value": "> 100 µM"}
{"Compound": "COc1ccc2c(c1)C(C)Cc1c(Cl)nc(C)nc1N2C (stereo unspecified)", "Data value": "40.3 µM"}
{"Compound": "O=C1C(=C(I)I)c2ccccc2-c2ccccc21", "Data value": "36.4 µM"}
{"Compound": "COc1cccc2nc3cc(C)c(C)cc3nc12", "Data value": "> 100 µM"}
{"Compound": "CCC1CCc2c(OC)ccc(OCC(=O)O)c2C1=O (stereo unspecified)", "Data value": "> 100 µM"}
{"Compound": "CC(C)CCc1n[nH]c(=O)n1/N=C\\c1ccccc1", "Data value": "> 100 µM"}
{"Compound": "OCC1OC(n2cnc3c(=S)nc[nH]c32)C(O)C1O (stereo unspecified)", "Data value": "> 2500 µM"}
{"Compound": "CCC(=O)N(O)C(C)(C)C", "Data value": "> 100 µM"}
{"Compound": "CC(=O)O[C@H]1CCn2c3c(c(C)c21)C(=O)C(N1CC1)=C(C)C3=O", "Data value": "> 10 µM"}
{"Compound": "COC(=O)[C@@]12C(=O)C(C)C(=O)[C@]1(C)C(C)=C[C@H]1[C@]3(C=O)CC[C@H](OC(C)=O)C(C)(C)[C@H]3CC[C@@]12C (stereo partly specified)", "Data value": "> 100 µM"}
{"Compound": "COC(=O)C1=C(O)c2cc3c(cc2[C@H](c2cc(OC)c(OC)c(OC)c2)C1C(=O)OC)OCO3 (stereo partly specified)", "Data value": "> 100 µM"}
{"Compound": "C=CCCCC1CCCNC1=S (stereo unspecified)", "Data value": "> 100 µM"}
{"Compound": "COC(=O)C1=C(C(=O)OC)SC(=C(N=Nc2ccccc2)c2ccccc2)S1", "Data value": "> 100 µM"}
{"Compound": "CS/C(=N\\c1nccs1)NC(=O)c1cccc(Cl)c1", "Data value": "> 100 µM"}
{"Compound": "COC(=O)C(F)C(Br)C(=O)OC (stereo unspecified)", "Data value": "43.4 µM"}
{"Compound": "C[C@@H](NC1CCC[C@H]1O)c1ccccc1 (stereo partly specified)", "Data value": "> 100 µM"}
{"Compound": "NC(=O)NC(=O)c1cccc(NC(=O)CF)c1", "Data value": "> 100 µM"}
{"Compound": "COc1cccc(C2SCC(=O)N2c2ccc(-n3c(-c4ccccc4)nc4ccccc4c3=O)cc2)c1OC (stereo unspecified)", "Data value": "> 100 µM"}
{"Compound": "COc1cc2c3c(n(C)c(=O)c2cc1OC)-c1cc2c(cc1/C3=C\\C(N)CN)OCO2 (stereo unspecified)", "Data value": "> 22.4 µM"}
{"Compound": "N.N.NCCCCCCN.O=C([O-])CC(=O)[O-].O=C([O-])CC(=O)[O-].[Pt+4].[Pt+4]", "Data value": "> 100 µM"}
{"Compound": "O=C1NC(=O)C(COCc2ccccc2)C2=C1SCCC2 (stereo unspecified)", "Data value": "> 100 µM"}
{"Compound": "CCOc1cc2c(cc1O)/C(=N/NS(=O)(=O)c1ccc(C)cc1)C[C@@H]1[C@@H]2CC[C@]2(C)[C@@H](O)CC[C@@H]12", "Data value": "68.7 µM"}
{"Compound": "CCOc1cc2c(cc1OC(C)=O)C(=O)CC[C@H]1C3CC[C@H](OC(C)=O)[C@@]3(C)CC[C@H]21 (stereo partly specified)", "Data value": "> 100 µM"}
{"Compound": "COc1cc(C(=O)/C=C/c2cccnc2Nc2ccccc2)cc(OC)c1OC", "Data value": "2.58 µM"}
{"Compound": "O=c1[nH]c(-c2ccc(-c3nc4cc([N+](=O)[O-])ccc4c(=O)[nH]3)cc2)nc2cc([N+](=O)[O-])ccc12", "Data value": "> 100 µM"}
{"Compound": "CC(CCC(=O)O)C1CCC2C3C(O)CC4CC(O)CCC4(C)C3CC(O)C12C (stereo unspecified)", "Data value": "> 100 µM"}
{"Compound": "CCN1C(=O)N(CC)C2C1NN=c1s/c(=C\\c3cc4ccccc4[nH]3)c(=O)n12 (stereo unspecified)", "Data value": "61.6 µM"}
{"Compound": "COc1cc(Oc2nc3c(N)cc(C(F)(F)F)cc3nc2-c2ccccc2)cc(OC)c1OC", "Data value": "> 78.2 µM"}
{"Compound": "N#Cc1cc([N+](=O)[O-])ccc1NC(=O)/C(=N/N)C(C(=O)c1ccc(Cl)c(Cl)c1)C1OC(=O)c2ccccc21 (stereo unspecified)", "Data value": "> 100 µM"}
{"Compound": "CC12CC(OC(=O)[C@]1(C)O)[C@@H]([C@]1(O)CC[C@H]3[C@@H]4C[C@H]5O[C@]56[C@@H](O)C=CC(=O)[C@]6(C)[C@H]4CC[C@@]31C)C2 (stereo partly specified)", "Data value": "> 100 µM"}

All figures here come from PubChem BioAssay (NCI).
